Molecular target: T1, rat NMUR1-TTG (rat, UniProt Q9JJI5 1-425)
T1 sequence (looked up): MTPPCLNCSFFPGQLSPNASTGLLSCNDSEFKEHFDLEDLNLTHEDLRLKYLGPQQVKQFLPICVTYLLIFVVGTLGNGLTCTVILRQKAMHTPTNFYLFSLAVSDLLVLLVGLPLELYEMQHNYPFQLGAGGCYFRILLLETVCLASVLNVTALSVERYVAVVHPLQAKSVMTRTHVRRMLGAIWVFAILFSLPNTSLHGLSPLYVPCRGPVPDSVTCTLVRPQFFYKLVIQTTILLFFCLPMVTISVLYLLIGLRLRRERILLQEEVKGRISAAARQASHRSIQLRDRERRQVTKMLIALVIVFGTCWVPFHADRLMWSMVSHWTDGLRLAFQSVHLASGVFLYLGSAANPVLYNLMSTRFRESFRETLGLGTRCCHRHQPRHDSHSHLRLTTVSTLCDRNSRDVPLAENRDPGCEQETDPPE
Test: cell-based or functional assay
*: point of attachment. (PEG)2 40 kDa = branched PEG of 40 kDa linked via the Cys side-chain thiol (code C2 = Cys(PEG)2 40 kDa); Palmitoyl = CCCCCCCCCCCCCCCC(=O)*
ASSAY_METRIC: EC50 (FLIPR) (nM)
The reply should be a number in nM, with the unit left off.

query: Input Palmitoyl-C((PEG)2 40 kDa)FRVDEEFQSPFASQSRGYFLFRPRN-NH2 [NMU25] , output reported EC50 (FLIPR).
result: 81
